This collection of values is drawn from patent US11046729B2.

test: Log D; type: physicochemical
Non-standard residues stand in square brackets, D forms with d. Residues, ends and D or L forms follow the SMILES beside them. Orn = NCCC[C@H](N)C(=O)O; Aib = CC(C)(N)C(=O)O
readout-name: logD
One number for each entry.

Quick one: logD of CC(=O)N[C@@H](CCCN)C(=O)NC(C)(C)C(N)=O [Compound 8] (Ac-[Orn]-[Aib]-NH2) ?
1

----------
test: Pharmacokinetics (% F, T1/2, Tmax); conditions: in vivo
Non-standard residues stand in square brackets, D forms with d. Residues, ends and D or L forms follow the SMILES beside them. Orn = NCCC[C@H](N)C(=O)O; Aib = CC(C)(N)C(=O)O
readout-name: Tmax (min)
Numbers only, in min.

Entry CC(=O)N[C@@H](CCCN)C(=O)NC(C)(C)C(N)=O [Compound 8] (Ac-[Orn]-[Aib]-NH2) has what Tmax?
30

----------
experiment: Human liver microsomal stability; type: in vitro ADME; settings: human liver microsomes; read-out: Human Liver Microsomal Stability t1/2
Non-standard residues stand in square brackets, D forms with d. Residues, ends and D or L forms follow the SMILES beside them. Orn = NCCC[C@H](N)C(=O)O; Aib = CC(C)(N)C(=O)O
readout-name: half-life (h)
One number for each entry, in h.

Data request, read-out half-life, for CC(=O)N[C@@H](CCCN)C(=O)NC(C)(C)C(N)=O [Compound 8] (Ac-[Orn]-[Aib]-NH2)
5

----------
experiment: Pharmacokinetics (% F, T1/2, Tmax); conditions: in vivo, iv
Non-standard residues stand in square brackets, D forms with d. Residues, ends and D or L forms follow the SMILES beside them. Orn = NCCC[C@H](N)C(=O)O; Aib = CC(C)(N)C(=O)O
readout-name: half-life (h)
Numbers only, in h.

Which half-life value is on record for CC(=O)N[C@@H](CCCN)C(=O)NC(C)(C)C(N)=O [Compound 8] (Ac-[Orn]-[Aib]-NH2) ?
1.9

----------
I'd appreciate it if you could supply inhibition at 50 pM values for the items below.
target: purified human platelet TSP-1 (activation of recombinant latent TGF-β1) (Homo sapiens, UniProt P07996); construct: purified human platelet TSP-1 was incubated with compounds; from tissue; host or cells: human platelets; assay: ELISA-based screening assay: TSP-1 activation of recombinant latent TGF-β1; format: biochemical; details: ELISA-based assay, Table 2, read-out: % Inhibition at 50 pM
Sequence (P07996 19-1170): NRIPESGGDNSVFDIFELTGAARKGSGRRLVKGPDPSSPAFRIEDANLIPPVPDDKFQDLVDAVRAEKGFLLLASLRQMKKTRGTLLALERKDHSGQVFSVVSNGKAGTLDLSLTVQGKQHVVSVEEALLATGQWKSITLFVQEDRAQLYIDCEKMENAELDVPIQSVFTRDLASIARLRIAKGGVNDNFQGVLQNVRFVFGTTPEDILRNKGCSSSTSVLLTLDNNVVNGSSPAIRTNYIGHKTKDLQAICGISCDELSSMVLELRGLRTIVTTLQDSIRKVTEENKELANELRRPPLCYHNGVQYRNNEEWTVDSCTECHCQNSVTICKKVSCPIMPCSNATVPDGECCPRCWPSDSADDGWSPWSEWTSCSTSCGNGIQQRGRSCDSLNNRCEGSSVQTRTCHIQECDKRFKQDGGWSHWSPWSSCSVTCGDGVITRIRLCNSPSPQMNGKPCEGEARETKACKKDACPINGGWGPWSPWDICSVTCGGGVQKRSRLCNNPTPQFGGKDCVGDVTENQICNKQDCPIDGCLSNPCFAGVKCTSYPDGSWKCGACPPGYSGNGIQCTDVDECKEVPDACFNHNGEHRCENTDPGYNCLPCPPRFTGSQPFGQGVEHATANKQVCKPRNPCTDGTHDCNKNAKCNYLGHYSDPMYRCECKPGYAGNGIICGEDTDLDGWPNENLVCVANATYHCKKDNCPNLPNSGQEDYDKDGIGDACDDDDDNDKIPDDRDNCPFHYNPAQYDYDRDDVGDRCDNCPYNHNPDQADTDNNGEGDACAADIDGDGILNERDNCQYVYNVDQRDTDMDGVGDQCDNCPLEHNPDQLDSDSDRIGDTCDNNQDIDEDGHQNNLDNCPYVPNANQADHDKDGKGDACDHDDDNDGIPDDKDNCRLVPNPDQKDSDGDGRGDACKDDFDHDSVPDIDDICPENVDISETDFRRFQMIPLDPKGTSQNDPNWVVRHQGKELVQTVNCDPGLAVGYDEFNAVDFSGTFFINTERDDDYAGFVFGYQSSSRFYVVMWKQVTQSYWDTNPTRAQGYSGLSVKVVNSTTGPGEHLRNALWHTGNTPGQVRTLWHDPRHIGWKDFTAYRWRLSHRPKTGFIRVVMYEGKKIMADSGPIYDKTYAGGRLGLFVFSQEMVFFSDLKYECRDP
Non-standard residues stand in square brackets, D forms with d. Residues, ends and D or L forms follow the SMILES beside them. Orn = NCCC[C@H](N)C(=O)O; Ac5c = NC1(C(=O)O)CCCC1; Aib = CC(C)(N)C(=O)O

For every listed record, write down its inhibition at 50 pM.
1. CC(=O)N[C@@H](CCCN)C(=O)Nc1cc(C)c[nH]c1=O
2. CC(=O)N[C@@H](CCCN)C(=O)NC1(C(N)=O)CCCC1 [Compound 13] (Ac-[Orn]-[Ac5c]-NH2)
3. CC(=O)N[C@@H](CCCN)C(=O)NCC(N)=O [Compound 82] (Ac-[Orn]-Gly-NH2)
4. CC(=O)N[C@@H](CCCN)C(=O)NC(C)(C)C(N)=O [Compound 8] (Ac-[Orn]-[Aib]-NH2)
5. CC(C)C[C@H](NC(=O)[C@H](CCCN)NC(=O)C1CCCC1)C(N)=O

1. 50%
2. 35%
3. 100%
4. 100%
5. 30%
